# assay-notes: NCI Yeast Anticancer Drug Screen. Data for the bub3 strain (AID 167)
# assay-conditions: S. cerevisiae bub3 mutant strain, active compounds read high; at 50.0 µM unless noted
About 79,000 compounds went through this panel and 15% of them were active in at least one assay; those are over-represented in the sample as a whole.
molecules and their reported growth inhibition

molecule: CN(C)C(=O)Sc1cccc([N+](=O)[O-])c1
growth inhibition (%): 10.5
//
molecule: N#Cc1ccc(/C=C(/C(=O)c2ccccc2)c2ccccc2)cc1
growth inhibition (%): -23.8
//
molecule: CC(C)C1N(N2C(=O)CS(=O)(=O)C2C(C)C)C(=O)CS1(=O)=O (stereo unspecified)
growth inhibition (%): -9.15
//
molecule: CC(O[Si](C)(C)C)C1C=CC(C)n2c(=O)n(-c3ccccc3)c(=O)n21 (stereo unspecified)
growth inhibition (%): -55.6
//
molecule: Cc1ccccc1C(=O)NCC(=O)O
growth inhibition (%): -4.1
//
molecule: O=CC[C@]12CC(=O)OC(C=CC13OCCO3)C2
growth inhibition (%): 13.4
